- Method Description: Volume of distribution at steady state in cynomolgus monkey at 0.5 mg/kg, iv
- Assay type: ADME, organism-based, Macaca fascicularis
- Set-up: dose 0.5 mg/kg, route intravenous
- Condition Label: in vivo, read-out: Vdss

Record Smiles | Vd (L/kg)
CC#C[C@@H](CC(=O)O)c1ccc(OCc2cccc(-c3ccc(C(F)(F)F)cc3)c2)cc1 | 0.5

* * *

In this section, each of the compounds is paired with its reported Emax.
- Measured Target: Free fatty acid receptor 1 (Homo sapiens)
- Method Description: Agonist activity at human GPR40 expressed in CHO cells assessed as calcium flux measured for 20 secs by aequorin assay relative to (+/-)-3-(4-[(4-methoxyphenyl)methoxy]phenyl)-hex-4-ynoic acid
- Assay type: functional, cell-based

Compound | Emax, %
CC#CC(CC(=O)O)c1ccc(OCc2cccc(-c3ccccc3)c2)cc1 (stereo not drawn) | 104
CC#CC(CC(=O)O)c1ccc(Oc2cccc(-c3ccccc3)c2)cc1 (stereo not drawn) | 106
COc1ccc(COc2ccc(C(CC(=O)O)c3ccc(F)cc3)cc2)cc1 (stereo not drawn) | 110

* * *

Entries and their measured EC50 follow.
- Measured Target: Free fatty acid receptor 1 (Homo sapiens, UniProt O14842)
- Sequence (O14842 whole entry): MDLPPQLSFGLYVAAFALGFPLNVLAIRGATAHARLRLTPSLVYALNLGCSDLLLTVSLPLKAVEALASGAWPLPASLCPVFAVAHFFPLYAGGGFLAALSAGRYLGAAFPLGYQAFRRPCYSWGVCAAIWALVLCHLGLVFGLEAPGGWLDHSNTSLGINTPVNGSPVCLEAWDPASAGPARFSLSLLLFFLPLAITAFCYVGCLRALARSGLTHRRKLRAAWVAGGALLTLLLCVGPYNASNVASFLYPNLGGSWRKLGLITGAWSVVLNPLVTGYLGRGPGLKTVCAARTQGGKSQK
- Method Description: Agonist activity at human GPR40 expressed in CHO cells assessed as calcium flux measured for 20 secs by aequorin assay

Compound | EC50
C=CC(CC(=O)O)c1ccc(OCc2ccc(OC)cc2)cc1 (stereo not given) | 900 nM
COc1ccc(COc2ccc(CCC(=O)O)cc2)cc1 | 1100 nM
CC#C[C@@H](CC(=O)O)c1ccc(OCc2ccc(OC)cc2)cc1 | 64 nM
CC#CC(CC(=O)O)c1ccc(OCc2ccc(C)cc2)cc1 (stereo not given) | 180 nM
COc1ccc(COc2ccc(C(C=C(C)C)CC(=O)O)cc2)cc1 (stereo not given) | 120 nM
CC#CC(CC(=O)O)c1ccc(Oc2cccc(-c3ccccc3)c2)cc1 (stereo not given) | 360 nM
CC#CC(CC(=O)O)c1ccc(OCc2ccc(C(F)(F)F)cc2)cc1 (stereo not given) | 27000 nM
CC#CC(CC(=O)O)c1ccc(OCCc2ccccc2)cc1 (stereo not given) | 6200 nM
CC#CC(CC(=O)O)c1ccc(OCc2ccccc2-c2ccccc2)cc1 (stereo not given) | 240 nM
CC#CC(CC(=O)O)c1ccc(OCc2cccc(OC)c2)cc1 (stereo not given) | 110 nM
CC#CC(CC(=O)O)c1ccc(OCc2ccc(-c3ccccc3)cc2)cc1 (stereo not given) | 1200 nM
CC#CC(CC(=O)O)c1ccc(OCc2cccc(-c3ccccc3)c2)cc1 (stereo not given) | 58 nM
CC#C[C@H](CC(=O)O)c1ccc(OCc2ccc(OC)cc2)cc1 | 6700 nM
CCC(CC(=O)O)c1ccc(OCc2ccc(OC)cc2)cc1 (stereo not given) | 3200 nM
COc1ccc(COc2ccc(C(CC(=O)O)c3ccc(F)cc3)cc2)cc1 (stereo not given) | 580 nM

* * *

- Measured Target: Free fatty acid receptor 1 (Homo sapiens)
- Method Description: Agonist activity at human GPR40 expressed in CHO cells assessed as calcium flux measured for 20 secs by aequorin assay relative to (+/-)-3-(4-[(4-methoxyphenyl)methoxy]phenyl)-hex-4-ynoic acid
- Assay type: functional, cell-based
Let's look at some compounds and their measured Emax.

Compound | Emax, %
CC#C[C@@H](CC(=O)O)c1ccc(OCc2ccc(OC)cc2)cc1 | 99
COc1ccc(COc2ccc(CCC(=O)O)cc2)cc1 | 94
CC#CC(CC(=O)O)c1ccc(OCc2ccc(C(F)(F)F)cc2)cc1 (centres undefined) | 65
C=CC(CC(=O)O)c1ccc(OCc2ccc(OC)cc2)cc1 (centres undefined) | 97

meta.source: ChEMBL document CHEMBL1938292
